// 4-hydroxyphenylpyruvate dioxygenase (Sus scrofa, UniProt Q02110) pIC50 records
pIC50: −log10 of the molar value.
Parameter measured: pIC50

Worked examples, 3 compounds total:
[[record]]
compound = "CC(Oc1ccc(O)cc1)C(=O)O (stereo not drawn)"
reported_result = 4.03

[[record]]
compound = "COC(=O)CC1=CC(=O)C(OC)=CC1=O"
reported_result = 3.82

[[record]]
compound = "O=C(O)COc1ccc(O)cc1"
reported_result = 5.22


(a) COC(=O)COc1ccc(O)cc1
(b) O=C1OCC(c2ccccc2)=C1O
(c) CCOC(=O)COc1ccc(O)cc1
(d) COC(=O)CC12OC1C(=O)C(OC)=CC2=O (stereo not drawn)
Q: Place the items in sequence of falling pIC50. Please write the labels in the order that was asked for.
A: b, c, a, d
(b: 6.30, c: 4.14, a: 3.65, d: 3.30)
